- assay details: amyloid nucleation score (Sup35N fusion, yeast selection) (log enrichment); library NNK2; higher = more nucleation; inactive = no reads after selection;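 note: zero at mode of non-aggregating sequences after 7 days selection at 30°C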
measured endpoint: amyloid nucleation score

Please review the entries below; each comes with its answer.
FLTNGESGTMGI
inactive
MCSMCIVLPPVCVLKAKVYT
3.69
VIPFISIRLCAAVRVFVPQS
5.04
MSSMCNLFRYMFKLYVRSWV
-0.681

INPUT: What does the data say about its amyloid nucleation score? Entry: "HFDEPFFCCAGMHAH"
OUTPUT: 6.8

INPUT: What does the data say about its amyloid nucleation score? Entry: "AEEQLLWFCYFRELKILNIF"
OUTPUT: inactive

INPUT: What does the data say about its amyloid nucleation score? Entry: "FSSILWRFSRLVVRSLVPKS"
OUTPUT: 0.175

INPUT: What does the data say about its amyloid nucleation score? Entry: "MSFWMSTTINRN"
OUTPUT: 1.67

INPUT: What does the data say about its amyloid nucleation score? Entry: "MEPNYGVRGVMYNFVMPRWM"
OUTPUT: 7.25

INPUT: What does the data say about its amyloid nucleation score? Entry: "REVTNLYVVGGSDCTLIGGM"
OUTPUT: 3.75

INPUT: What does the data say about its amyloid nucleation score? Entry: "NMSLHRAILGFKAATIMRSL"
OUTPUT: -0.821

INPUT: What does the data say about its amyloid nucleation score? Entry: "ALENSDSELCETAWFFHFMH"
OUTPUT: 0.185

Cited source: the supplement of paper PMC12042874
